Data credit: paper PMC7746380

# Protocol summary: Microsomal stability, human liver microsomes
# Assay type: in vitro ADME
# Experimental context: pooled human liver microsomes, 1 μM compound, 37 °C
Experimental readout: half-life at 1 μM (min)
Unit min implied. Number only.

Short answer for CC(C)C[C@H](NC(=O)[C@H](Cc1ccccc1)NC(=O)c1cnccn1)B(O)O [bortezomib] : half-life at 1 μM was 21.4

---

# Test system: NF-κB/luciferase 293T cells
# Protocol summary: NF-κB inhibition assay (luciferase reporter, TNF-α stimulated)
# Type: cell-based
# Experimental context: Homo sapiens, HEK-293T; 6 h pre-treatment, then 10 ng/ml TNF-α for 18 h; read from Figure 3K
Experimental readout: pIC50
// scale note: pIC50 = -log10(conc_M); give the bare number

Short answer for `CC(C)C[C@H](NC(=O)[C@H](Cc1ccccc1)NC(=O)c1cnccn1)B(O)O` : pIC50 was 7.73

---

# Protocol summary: Microsomal stability, rat liver microsomes
# Type: in vitro ADME
# Experimental context: pooled rat liver microsomes, 1 μM compound, 37 °C
Experimental readout: CLint scaled at 1 μM (mL/min/kg)
Unit mL/min/kg implied. Number only.

Short answer for CC(C)C[C@H](NC(=O)[C@H](Cc1ccccc1)NC(=O)c1cnccn1)B(O)O [bortezomib] : CLint scaled at 1 μM was 200

---

# Protocol summary: Microsomal stability, mouse liver microsomes
# Assay type: in vitro ADME
# Experimental context: pooled mouse liver microsomes, 1 μM compound, 37 °C
Experimental readout: half-life at 1 μM (min)
Unit min implied. Number only.

Short answer for `CC(C)C[C@H](NC(=O)[C@H](Cc1ccccc1)NC(=O)c1cnccn1)B(O)O` : half-life at 1 μM was 10.7
